- system-name: Broad substrate specificity ATP-binding cassette transporter ABCG2 (Homo sapiens)
- assay-info: ABCG2 efflux pump inhibitors, primary screen, multiplex with ABCB1, IgMXP3 cells, flow cytometry (AID 1325);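 further: 0% = DMSO and 100% = nicardipine control wells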
- condition-description: JC-1 efflux, at 6.6 µM, active compounds read high
Screen size: about 190,000 compounds; about 200 (0.11%) were called active. For the sample, actives were picked, then their nearest neighbours and some compounds at random.
value-type: inhibition

[[record]]
compound = "CN(Cc1ccccc1)C(=O)CCc1ccccc1"
system_name = "Broad substrate specificity ATP-binding cassette transporter ABCG2 (Homo sapiens)"
value_type = "inhibition"
measured_result = "1.98% (inactive)"

[[record]]
compound = "Cn1c(CCC(=O)OCC(=O)NCc2ccccc2Cl)nc(=O)c2ccccc21"
system_name = "Broad substrate specificity ATP-binding cassette transporter ABCG2 (Homo sapiens)"
value_type = "inhibition"
measured_result = "1.08% (inactive)"

[[record]]
compound = "COc1cccc(C2CC(c3ccccc3)=NN2S(=O)(=O)c2ccccc2)c1OC (stereo unspecified)"
system_name = "Broad substrate specificity ATP-binding cassette transporter ABCG2 (Homo sapiens)"
value_type = "inhibition"
measured_result = "5.72% (inactive)"

[[record]]
compound = "CC(C)NC(=S)NN=C1CCCCCCCCCCC1"
system_name = "Broad substrate specificity ATP-binding cassette transporter ABCG2 (Homo sapiens)"
value_type = "inhibition"
measured_result = "5.8% (inactive)"

[[record]]
compound = "COc1ccc(CN(C)Cc2nc3cc(OC)c(OC)cc3c(=O)[nH]2)c(OC)c1"
system_name = "Broad substrate specificity ATP-binding cassette transporter ABCG2 (Homo sapiens)"
value_type = "inhibition"
measured_result = "3.26% (inactive)"

[[record]]
compound = "COc1ccc(C(=O)Nc2ccc(-n3nncc3C(C)(C)C)cc2)cc1"
system_name = "Broad substrate specificity ATP-binding cassette transporter ABCG2 (Homo sapiens)"
value_type = "inhibition"
measured_result = "1.71% (inactive)"


###

Measured inhibition values are reported for all entries that follow.
- system-name: Broad substrate specificity ATP-binding cassette transporter ABCG2 (Homo sapiens)
- assay-info: ABCG2 efflux pump inhibitors, primary screen, multiplex with ABCB1, IgMXP3 cells, flow cytometry (AID 1325);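 further: 0% = DMSO and 100% = nicardipine control wells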
- condition-description: JC-1 efflux, at 6.6 µM, active compounds read high
The campaign covered roughly 190,000 compounds. About 200 (0.11%) were called active. The full list was thinned out, with actives kept by preference.
value-type: inhibition (%)

[[record]]
compound = "COc1ccc(C2(CNC(=O)Cc3ccc(OC)c(OC)c3)CCCC2)cc1"
unit_string = "%"
measured_result = 2.77

[[record]]
compound = "C#CCOCCOCCOCCNc1nc(N2CCN(C(=O)[C@H](Cc3ccc(O)cc3)n3cc(C(N)CC(C)C)nn3)CC2)nc(N2CCN(C(=O)[C@H](CCC(=O)O)n3cc(C(N)[C@H](C)CC)nn3)CC2)n1 (stereo not given in full)"
unit_string = "%"
measured_result = -1.91

[[record]]
compound = "O=S(=O)(Nc1ncccn1)c1ccc(NS(=O)(=O)c2cccc(Cl)c2Cl)cc1"
unit_string = "%"
measured_result = 0.94

[[record]]
compound = "O=C(Cc1c[nH]c2ccccc12)N/N=C/c1cccc(F)c1"
unit_string = "%"
measured_result = 88.7

[[record]]
compound = "O=C(Cc1ccc(F)cc1)N/N=C/c1ccc2c(c1)OCO2"
unit_string = "%"
measured_result = 10.1

[[record]]
compound = "N#CC1(C#N)C(C(=O)C23CC4CC(CC(C4)C2)C3)C12CCOCC2 (stereo not given)"
unit_string = "%"
measured_result = -1.02

[[record]]
compound = "O=C(c1cncc(Br)c1)N1CCN(c2ccc([N+](=O)[O-])cc2)CC1"
unit_string = "%"
measured_result = 34.2

[[record]]
compound = "CCOc1ccc(NC(=O)c2cc(C)nc3ccccc23)cc1"
unit_string = "%"
measured_result = 4.37

[[record]]
compound = "COc1ccc(Cl)cc1NC(=O)CNc1ccccc1F"
unit_string = "%"
measured_result = 28.9

[[record]]
compound = "O=C(CC(=O)N/N=C\\c1ccc(F)cc1)NCCc1ccccc1"
unit_string = "%"
measured_result = 1.18


###

- system-name: Broad substrate specificity ATP-binding cassette transporter ABCG2 (Homo sapiens) (UniProt Q9UNQ0)
- Sequence (Q9UNQ0 whole entry, looked up): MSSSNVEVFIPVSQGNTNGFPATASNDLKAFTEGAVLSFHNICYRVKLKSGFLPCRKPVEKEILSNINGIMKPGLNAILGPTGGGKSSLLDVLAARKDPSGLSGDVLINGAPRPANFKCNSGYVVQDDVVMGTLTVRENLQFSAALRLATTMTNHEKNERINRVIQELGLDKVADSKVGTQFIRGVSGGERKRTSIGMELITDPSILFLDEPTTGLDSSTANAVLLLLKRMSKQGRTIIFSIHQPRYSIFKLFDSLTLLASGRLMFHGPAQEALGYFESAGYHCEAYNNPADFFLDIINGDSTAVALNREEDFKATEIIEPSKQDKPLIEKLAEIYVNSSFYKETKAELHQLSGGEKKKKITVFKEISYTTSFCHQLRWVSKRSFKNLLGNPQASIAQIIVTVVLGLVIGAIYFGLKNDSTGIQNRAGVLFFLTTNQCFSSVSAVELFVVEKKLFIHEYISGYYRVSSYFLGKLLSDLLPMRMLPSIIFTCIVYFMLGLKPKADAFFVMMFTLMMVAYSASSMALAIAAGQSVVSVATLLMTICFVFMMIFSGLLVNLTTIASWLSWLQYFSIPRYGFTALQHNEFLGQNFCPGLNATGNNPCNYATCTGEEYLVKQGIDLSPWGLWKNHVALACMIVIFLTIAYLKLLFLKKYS
- assay-info: ABCG2 efflux pump inhibitors, primary screen, multiplex with ABCB1, IgMXP3 cells, flow cytometry (AID 1325);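 further: 0% = DMSO and 100% = nicardipine control wells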
- condition-description: JC-1 efflux, at 6.6 µM, active compounds read high
Among all 190,000 compounds or so, about 200 (0.11%) were called active. The list comes from a sample in which actives are over-represented; it also holds close analogues and randomly drawn compounds.
Measured inhibition values are reported for all entries that follow.
value-type: inhibition (%)

[[record]]
compound = "CC1(C)CC(=O)C2=C(C1)Nc1cc(C(=O)c3ccccc3)ccc1NC2c1ccccn1 (stereo not given)"
value_type = "inhibition"
measured_result = 1.87

[[record]]
compound = "Cc1cc(OC(=O)c2ccccc2Cl)ccc1N1C(=O)CCC1=O"
value_type = "inhibition"
measured_result = 21.3

[[record]]
compound = "CCOC(=O)c1sc(/N=C/C2=C(O)CC(C)(C)CC2=O)c(C(=O)OCC)c1C"
value_type = "inhibition"
measured_result = 3.82

[[record]]
compound = "COc1ccccc1NC(=O)/C=C/C(=O)O"
value_type = "inhibition"
measured_result = 3.21

[[record]]
compound = "CCO/N=C(/C)c1c(O)cc(-c2ccccc2)n(-c2ccccc2)c1=O"
value_type = "inhibition"
measured_result = 32.1

[[record]]
compound = "CCn1nc(C)cc1C(=O)N1CCCC(C(=O)c2cccc(OC)c2)C1 (stereo not given)"
value_type = "inhibition"
measured_result = -0.58

[[record]]
compound = "C/C(=C/C(=O)N1CCN(C)CC1)C(=O)O"
value_type = "inhibition"
measured_result = 4.35

[[record]]
compound = "CCN(C(=O)COC(=O)/C=C/c1nc2ccccc2s1)C1CCS(=O)(=O)C1 (stereo not given)"
value_type = "inhibition"
measured_result = 1.28

[[record]]
compound = "COc1ccc(Cl)cc1N(CC(=O)N/N=C/c1ccc(OCC(N)=O)cc1)S(C)(=O)=O"
value_type = "inhibition"
measured_result = 8.83

[[record]]
compound = "Cc1nn(CC(=O)Nc2ccc3c(c2)OCO3)c(C)c1[N+](=O)[O-]"
value_type = "inhibition"
measured_result = 11.5


###

- system-name: Broad substrate specificity ATP-binding cassette transporter ABCG2 (Homo sapiens) (UniProt Q9UNQ0)
- assay-info: ABCG2 efflux pump inhibitors, primary screen, multiplex with ABCB1, IgMXP3 cells, flow cytometry (AID 1325);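 further: 0% = DMSO and 100% = nicardipine control wells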
- condition-description: JC-1 efflux, at 6.6 µM, active compounds read high
Hit rate of the full screen: of about 190,000 compounds, about 200 (0.11%) were called active. The full list was thinned out, with actives kept by preference.
value-type: inhibition (%)

[[record]]
compound = "COc1cc(NC(=O)c2cccnc2SC)cc(OC)c1"
unit_string = "%"
measured_result = 11.7

[[record]]
compound = "Cn1c(=O)c2c(nc(N/N=C/c3cccs3)n2Cc2ccc(Br)cc2)n(C)c1=O"
unit_string = "%"
measured_result = 8.74

[[record]]
compound = "O=c1c(-c2ccccc2)coc2cc(O)ccc12"
unit_string = "%"
measured_result = 2.5

[[record]]
compound = "CCNC(=O)CC1C(=O)N(c2ccc(OC)cc2)C(=S)N1CCc1ccncc1 (configuration not stated)"
unit_string = "%"
measured_result = -0.76

[[record]]
compound = "O=C(NCCCN1CCOCC1)c1ccc([N+](=O)[O-])cc1[N+](=O)[O-]"
unit_string = "%"
measured_result = 1.56

[[record]]
compound = "Cn1cc(CN2CCCC(CO)C2)c(-c2ccc(Oc3ccccc3)cc2)n1 (configuration not stated)"
unit_string = "%"
measured_result = -1.73

[[record]]
compound = "Cc1ccc(NC(=S)N(CCN(C)C)Cc2cccs2)cc1C"
unit_string = "%"
measured_result = -0.22

[[record]]
compound = "O=C(N/N=C/c1cc([N+](=O)[O-])ccc1O)/C(=C\\c1cccs1)NC(=O)c1ccccc1"
unit_string = "%"
measured_result = -3.14

[[record]]
compound = "C=CCNC(=O)/C=C/c1ccc(C(C)C)cc1"
unit_string = "%"
measured_result = 3.56

[[record]]
compound = "CN(C)c1ccc(/C=N/Nc2cc(N3CCOCC3)nc(N3CCOCC3)n2)cc1"
unit_string = "%"
measured_result = 5.63

[[record]]
compound = "O=C(COC(=O)c1ccccc1)Nc1cccc(S(=O)(=O)N2CCOCC2)c1"
unit_string = "%"
measured_result = 8.84

[[record]]
compound = "C/C(N)=C(/C#N)C(=O)COC(=O)C1CCN(C(=O)c2ccc(Cl)cc2)CC1"
unit_string = "%"
measured_result = 6.63

[[record]]
compound = "CCCC(=O)NC(=S)Nc1ccc(CN2CCOCC2)cc1"
unit_string = "%"
measured_result = 1.31

[[record]]
compound = "Cc1ccc(SCCC(=O)NC(C(C)C)C(C)C)cc1"
unit_string = "%"
measured_result = 29.5

[[record]]
compound = "Cc1cc(C)c2[nH]c(=O)c(CN(Cc3ccccc3)C(=S)NCCCN(C)C)cc2c1"
unit_string = "%"
measured_result = 54.5

[[record]]
compound = "CCc1ccc(Oc2nc([N+](=O)[O-])nn2C)cc1"
unit_string = "%"
measured_result = 1.08

[[record]]
compound = "CN(C)c1ccc(C=C2C(=O)OC3(CCCC3)OC2=O)cc1"
unit_string = "%"
measured_result = 0.11

[[record]]
compound = "CNC(=O)c1ccsc1NC(=O)c1ccc(S(=O)(=O)N2CCc3ccccc32)cc1"
unit_string = "%"
measured_result = 0.15

[[record]]
compound = "Cc1nc2nc[nH]n2c(=O)c1C/C=C/c1ccccc1"
unit_string = "%"
measured_result = 0.18

[[record]]
compound = "Cc1ccc(NC(=O)NC(=O)CSc2nnc(-c3ccc(OC(F)F)cc3)n2N)c(C)c1"
unit_string = "%"
measured_result = 4.7

[[record]]
compound = "Cc1ccc(OCC(=O)NNC(=S)NCc2ccccc2)cc1"
unit_string = "%"
measured_result = -1.33

[[record]]
compound = "O=C(NCc1ccccc1Cl)C1CCC(CNc2c(N3CCCCC3)c(=O)c2=O)CC1 (configuration not stated)"
unit_string = "%"
measured_result = 0

